Values were extracted from PubChem BioAssay AID2060620.

System: 328373-195-R-J1-PDC complex spheroids, viability % test/control;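 further: spheroids exposed to the agents for 7 days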
protocolText: Anticancer human tumor 328373-195-R-J1-PDC patient-derived head and neck squamous carcinoma cell line growth inhibition [CLK]
measurementParameters: second compound 10 µM; first compound 0.316 µM; active compounds read low
Classify: met when viability, T/C is strictly less than 3%; not met when viability, T/C is not.

molecule	assignedCategory
CC1COCCN1c1cc(C2(S(C)(=N)=O)CC2)nc(-c2ccnc3[nH]ccc23)n1 (stereo not given) + CNC(=O)c1ccc(Nc2nc(OC3CCCC3)c3c(-c4ccc5nc(C)oc5c4)c[nH]c3n2)c(OC)c1	not met
CC1(C)CCC(CN2CCN(c3ccc(C(=O)NS(=O)(=O)c4ccc(NCC5CCOCC5)c([N+](=O)[O-])c4)c(Oc4cnc5[nH]ccc5c4)c3)CC2)=C(c2ccc(Cl)cc2)C1 + CN1CCN(c2cc(C(=O)Nc3cc4cc(-c5cnn(C)c5)ccc4cn3)ccn2)CC1	not met
Nc1ccn(C2OC(CO)C(O)C2(F)F)c(=O)n1 (stereo not given) + CN1CCN(c2cc(C(=O)Nc3cc4cc(-c5cnn(C)c5)ccc4cn3)ccn2)CC1	met
C=C(F)C(=O)N1CCN(c2nc(OCC3CCCN3C)nc3c2CCN(c2cccc4cccc(Cl)c24)C3)CC1CC#N (stereo not given) + CNC(=O)c1ccc(Nc2nc(OC3CCCC3)c3c(-c4ccc5nc(C)oc5c4)c[nH]c3n2)c(OC)c1	not met
CC1(C)CCC(CN2CCN(c3ccc(C(=O)NS(=O)(=O)c4ccc(NCC5CCOCC5)c([N+](=O)[O-])c4)c(Oc4cnc5[nH]ccc5c4)c3)CC2)=C(c2ccc(Cl)cc2)C1 + CNC(=O)c1ccc(Nc2nc(OC3CCCC3)c3c(-c4ccc5nc(C)oc5c4)c[nH]c3n2)c(OC)c1	not met
CC(Nc1ccc2c(c1)OCCn1cc(N3C(=O)OCC3C(F)F)nc1-2)C(N)=O (stereo not given) + CN1CCN(c2cc(C(=O)Nc3cc4cc(-c5cnn(C)c5)ccc4cn3)ccn2)CC1	met
COc1cccc2c1C(=O)c1c(O)c3c(c(O)c1C2=O)CC(O)(C(=O)CO)CC3OC1CC(N)C(O)C(C)O1 (stereo not given) + CN1CCN(c2cc(C(=O)Nc3cc4cc(-c5cnn(C)c5)ccc4cn3)ccn2)CC1	met
C#Cc1c(F)ccc2cc(O)cc(-c3ncc4c(N5CC6CCC(C5)N6)nc(OCC56CCCN5CC(F)C6)nc4c3F)c12 (stereo not given) + CN1CCN(c2cc(C(=O)Nc3cc4cc(-c5cnn(C)c5)ccc4cn3)ccn2)CC1	met
C=CC(=O)N1CCN(c2nc(=O)n(-c3c(C)ccnc3C(C)C)c3nc(-c4c(O)cccc4F)c(F)cc23)C(C)C1 (stereo not given) + CN1CCN(c2cc(C(=O)Nc3cc4cc(-c5cnn(C)c5)ccc4cn3)ccn2)CC1	met
COC1C=CCC(C)C(C)S(=O)(=O)NC(=O)c2ccc3c(c2)N(CC2CCC21)CC1(CCCc2cc(Cl)ccc21)CO3 (stereo not given) + CN1CCN(c2cc(C(=O)Nc3cc4cc(-c5cnn(C)c5)ccc4cn3)ccn2)CC1	met
O=c1[nH]cc(F)c(=O)[nH]1 + CNC(=O)c1ccc(Nc2nc(OC3CCCC3)c3c(-c4ccc5nc(C)oc5c4)c[nH]c3n2)c(OC)c1	not met
CC1COCCN1c1cc(C2(S(C)(=N)=O)CC2)nc(-c2ccnc3[nH]ccc23)n1 (stereo not given) + CN1CCN(c2cc(C(=O)Nc3cc4cc(-c5cnn(C)c5)ccc4cn3)ccn2)CC1	met
C=C(F)C(=O)N1CCN(c2nc(OCC3CCCN3C)nc3c2CCN(c2cccc4cccc(Cl)c24)C3)CC1CC#N (stereo not given) + CN1CCN(c2cc(C(=O)Nc3cc4cc(-c5cnn(C)c5)ccc4cn3)ccn2)CC1	met
CC(Nc1ccc2c(c1)OCCn1cc(N3C(=O)OCC3C(F)F)nc1-2)C(N)=O (stereo not given) + CNC(=O)c1ccc(Nc2nc(OC3CCCC3)c3c(-c4ccc5nc(C)oc5c4)c[nH]c3n2)c(OC)c1	not met
Nc1ccn(C2OC(CO)C(O)C2(F)F)c(=O)n1 (stereo not given) + CNC(=O)c1ccc(Nc2nc(OC3CCCC3)c3c(-c4ccc5nc(C)oc5c4)c[nH]c3n2)c(OC)c1	not met
C#Cc1c(F)ccc2cc(O)cc(-c3ncc4c(N5CC6CCC(C5)N6)nc(OCC56CCCN5CC(F)C6)nc4c3F)c12 (stereo not given) + CNC(=O)c1ccc(Nc2nc(OC3CCCC3)c3c(-c4ccc5nc(C)oc5c4)c[nH]c3n2)c(OC)c1	not met
CC(CO)NC(=O)c1cc(-c2ccc(Cl)cc2)nn(-c2cnn(C)c2)c1=O (stereo not given) + CN1CCN(c2cc(C(=O)Nc3cc4cc(-c5cnn(C)c5)ccc4cn3)ccn2)CC1	met
Nc1ccccc1NC(=O)c1ccc(CNC(=O)OCc2cccnc2)cc1 + CN1CCN(c2cc(C(=O)Nc3cc4cc(-c5cnn(C)c5)ccc4cn3)ccn2)CC1	met
Nc1ccccc1NC(=O)c1ccc(CNC(=O)OCc2cccnc2)cc1 + CNC(=O)c1ccc(Nc2nc(OC3CCCC3)c3c(-c4ccc5nc(C)oc5c4)c[nH]c3n2)c(OC)c1	not met
